Collected GI50 values appear next to each entry.
Tested on: 786-0
assay comment: Growth inhibition of human 786-0 cells
Type: functional
measurement label: GI50

compound	tested system	reported value
COC(=O)[C@H](C)[C@H]1CC[C@@](C)(CCC2=C(C)CCCC2(C)C)OO1	786-0	> 25000 nM
C=C1CCCC(C)(C)C1CCC1(C)CC[C@H]([C@@H](C)C(=O)O)OO1 (single isomer, unassigned)	786-0	940 nM
C=C1CCCC(C)(C)C1CC[C@]1(C)CC[C@@H]([C@@H](C)C(=O)O)OO1 (stereo not given in full) [EPINUAPAPUIN B]	786-0	> 10000 nM
C=C1CCCC(C)(C)C1(O)CC/C(C)=C/CC[C@]1(C)CC[C@@H]([C@@H](C)C(=O)OC)OO1 (stereo not given in full)	786-0	> 17500 nM
CC(=O)CC/C=C(\C)CCC1=C(C)CCCC1(C)C	786-0	> 15000 nM
C=C1CCC[C@H]2[C@](C)(CC[C@]3(C)CC[C@H]([C@@H](C)C(=O)O)OO3)[C@@H](C)CC[C@]12C	786-0	610 nM
CC1=C(CC/C(C)=C/CC[C@@]2(C)CC[C@H]([C@H](C)C(=O)O)OO2)C(C)(C)CCC1	786-0	> 5000 nM
C=C1CCCC(C)(C)C1CC[C@]1(C)CC[C@H]([C@@H](C)C(=O)OC)OO1 (stereo not given in full)	786-0	270 nM
C=C1CCC[C@H]2[C@](C)(CC[C@]3(C)CC[C@@H]([C@@H](C)C(=O)O)OO3)[C@@H](C)CC[C@]12C	786-0	500 nM
C=C1CCC[C@H]2[C@](C)(CCC(C)=O)[C@@H](C)CC[C@]12C	786-0	> 15000 nM
